Molecular target: MoIcl1 (Pyricularia oryzae)
Sequence (P0CT06 whole entry, looked up): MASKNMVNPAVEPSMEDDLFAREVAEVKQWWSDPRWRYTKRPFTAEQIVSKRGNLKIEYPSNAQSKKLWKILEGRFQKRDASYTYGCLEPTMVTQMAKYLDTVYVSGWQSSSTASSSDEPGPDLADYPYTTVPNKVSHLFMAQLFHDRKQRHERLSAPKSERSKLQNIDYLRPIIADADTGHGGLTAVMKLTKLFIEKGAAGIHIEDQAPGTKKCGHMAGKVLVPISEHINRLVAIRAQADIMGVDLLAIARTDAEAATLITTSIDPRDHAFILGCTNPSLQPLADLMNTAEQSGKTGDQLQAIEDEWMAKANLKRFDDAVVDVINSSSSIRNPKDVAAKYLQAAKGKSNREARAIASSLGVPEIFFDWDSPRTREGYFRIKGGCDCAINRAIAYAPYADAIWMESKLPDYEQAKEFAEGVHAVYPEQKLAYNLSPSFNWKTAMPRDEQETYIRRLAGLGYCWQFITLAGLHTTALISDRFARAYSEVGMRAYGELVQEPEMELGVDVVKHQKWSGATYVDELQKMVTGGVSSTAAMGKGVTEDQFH
measurement_type: pKd
Give bare numbers, as −log10 of the molar value.

Q: I am curious: what pKd value has been reported for `COc1ccc2[nH]cc(CCNC(C)=O)c2c1` ?
A: 3.54

The origin of these recorded values is paper doi:10.1101/2023.07.01.547317v1.
